Measured IC50 by item
molecular target: α-glycosidase; assay: α-glycosidase inhibitory activity assay; type: biochemical; conditions: α-glycosidase inhibition in vitro; mean ± SD, n = 3
# value in µM; strip the unit string

- compound: "C[C@H]1O[C@H](O[C@H]2[C@H](O)[C@@H](O)[C@@H](O[C@H]3[C@H](O)[C@@H](O)C(O)O[C@@H]3CO)O[C@@H]2CO)[C@H](O)[C@@H](O)[C@@H]1N[C@H]1C=C(CO)[C@@H](O)[C@H](O)[C@H]1O (some centres unmarked) [Acarbose, reference compound]"
  recorded metric: "IC50"
  data value: 276

# evaluate next
Input: Please supply the value of reported IC50 for the item CCC(C)/C=C(\C)[C@H]1C(C)=C[C@@]2(C)C[C@@H](C)CC[C@@H]2[C@H]1C(=O)C1=C/C(=C/c2ccc(O)cc2)NC1=O (some centres unmarked) [Compound 4, talaroconvolutin A]
Output: 78.2
